tested on: HeLa; experiment: Antiproliferative activity against human HeLa cells assessed as cell growth inhibition by MTT assay; format: functional, cell-based
Classify: Yes when IC50 is strictly less than 50 µM; No when IC50 is not.

>>> category("COc1cc(-c2nc(N)n(CC(=O)c3ccc(C)cc3)n2)cc(OC)c1OC")
"No"
>>> category("COc1cc(-c2nc(N)n(CC(=O)Nc3ccc(C(C)(C)C)cc3)n2)cc(OC)c1OC")
"Yes"
>>> category("COc1cc(-c2nc(N)n(Cc3cc(OC(F)(F)F)cc(OC(F)(F)F)c3)n2)cc(OC)c1OC")
"No"
>>> category("COc1cc(-c2nc(N)n(CC(=O)c3cccc(Br)c3)n2)cc(OC)c1OC")
"No"
>>> category("CCCc1ccc(NC(=O)Cn2nc(-c3cc(OC)c(OC)c(OC)c3)nc2N)cc1")
"No"
>>> category("COc1ccc(/C=C\\c2cc(OC)c(OC)c(OC)c2)cc1O")
"Yes"
>>> category("COc1cc(-c2nc(N)n(Cc3ccc(C)cc3)n2)cc(OC)c1OC")
"Yes"
>>> category("COc1ccc(C(=O)Cn2nc(-c3cc(OC)c(OC)c(OC)c3)nc2N)cc1")
"No"
>>> category("COc1cc(-c2nc(N)n(Cc3ccc([N+](=O)[O-])cc3)n2)cc(OC)c1OC")
"No"

====

system: PANC-1; assay: Antiproliferative activity against human PANC-1 cells assessed as cell growth inhibition at 100 uM by MTT assay relative to control; format: functional; conditions: read-out: GI
measured endpoint: inhibition of growth at 100 µM (%)

>>> value_reported("COc1cc(-c2nc(N)n(CC(=O)c3ccccc3)n2)cc(OC)c1OC")
4
>>> value_reported("COc1cc(-c2nc(N)n(Cc3ccc([N+](=O)[O-])cc3)n2)cc(OC)c1OC")
53
>>> value_reported("COc1cc(-c2nc(N)n(CC(=O)Nc3ccc(C)c(C)c3)n2)cc(OC)c1OC")
32

====

Examples of compounds with documented inhibition of growth at 100 µM follow.
tested on: MCF7; assay: Antiproliferative activity against human MCF7 cells assessed as cell growth inhibition at 100 uM by MTT assay relative to control; assay type: functional; details: read-out: GI
measured endpoint: inhibition of growth at 100 µM (%)

>>> value_reported("COc1cc(-c2nc(N)n(CC(=O)c3ccc(C)cc3)n2)cc(OC)c1OC")
53
>>> value_reported("COc1cc(-c2nc(N)n(CC(=O)c3ccccc3)n2)cc(OC)c1OC")
30
>>> value_reported("COc1cc(-c2nc(N)n(CC(=O)Nc3ccc(C)cc3F)n2)cc(OC)c1OC")
21
>>> value_reported("COc1cc(-c2nc(N)n(Cc3ccc([N+](=O)[O-])cc3)n2)cc(OC)c1OC")
52
>>> value_reported("COc1cc(-c2nc(N)n(Cc3ccc(F)cc3)n2)cc(OC)c1OC")
34
>>> value_reported("COc1cccc(C(=O)Cn2nc(-c3cc(OC)c(OC)c(OC)c3)nc2N)c1")
30
>>> value_reported("COc1cc(-c2nc(N)n(CC(=O)c3ccc(F)cc3)n2)cc(OC)c1OC")
27
>>> value_reported("CCCc1ccc(NC(=O)Cn2nc(-c3cc(OC)c(OC)c(OC)c3)nc2N)cc1")
70
>>> value_reported("COc1ccc(C(=O)Cn2nc(-c3cc(OC)c(OC)c(OC)c3)nc2N)cc1")
73
>>> value_reported("COc1cc(-c2nc(N)n(CC(=O)Nc3cccc(C)c3)n2)cc(OC)c1OC")
23
